TEST_PROTOCOL: Capacity of solvents to dissolve sophorolactone
Assay type: physicochemical
REPORTED_CONDITIONS: percent sophorolactone dissolved by the solvent at room temperature
Entry class follows % lactone dissolved: low end = under 8%, middle = from 8% up to 20%, high end = 20% and over

MOLECULE | GROUP
CCOC(C)=O [Ethylacetate] | low end
O=C1OCC(CO)O1 (centres unmarked) [Glycerincarbonate] | low end
OCc1ccccc1 | high end
CO[C@H]1CO[C@H]2[C@@H]1OC[C@H]2OC [Dimethyl isosorbide] | high end
CCO | low end
COC(C)COC(C)CO (centres unmarked) | high end
OCCc1ccccc1 | high end
CC(C)O | low end
CC(C)CCOC(=O)C(C)O (centres unmarked) [Isoamyl lactate] | high end
CCCCOCC(C)O (centres unmarked) | low end
CC(O)CO (centres unmarked) | middle
OCC(O)CO | low end
CCCOCC(C)O (centres unmarked) | middle
OCCCO | low end
OCCCc1ccccc1 [Hydrocinnamylalcohol] | high end
C=C(C)[C@H]1CC=C(C)CC1 | middle
CC(=O)O | high end
CCCCCCC(O)CO (centres unmarked) | middle
CCCCCCO | low end
